Values from the supplement of paper PMC7877785

I'd be grateful if you could share measured self-splicing fitness (ln) for these entries.
assay: self-splicing fitness, log relative to wild type (ln ratio); higher = more splicing; Tetrahymena group I intron in knt gene, E. coli kanamycin selection, DiMSum; sequences stand for … in CUCUCU…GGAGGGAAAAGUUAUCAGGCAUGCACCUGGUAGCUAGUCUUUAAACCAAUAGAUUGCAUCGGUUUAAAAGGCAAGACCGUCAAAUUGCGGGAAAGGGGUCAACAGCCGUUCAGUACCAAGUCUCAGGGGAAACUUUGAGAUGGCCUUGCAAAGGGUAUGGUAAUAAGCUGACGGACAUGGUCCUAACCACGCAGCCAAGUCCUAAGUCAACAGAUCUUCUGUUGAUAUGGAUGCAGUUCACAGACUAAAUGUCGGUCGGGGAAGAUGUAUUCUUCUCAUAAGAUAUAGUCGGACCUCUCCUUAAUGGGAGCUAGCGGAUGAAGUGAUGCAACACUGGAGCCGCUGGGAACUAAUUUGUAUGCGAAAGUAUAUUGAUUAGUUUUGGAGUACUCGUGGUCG; conditions: 30 °C;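 also: selection with 25 µg/mL kanamycin versus none on LB agar overnight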

In the examples that follow, each entry is paired with its recorded self-splicing fitness (ln).
sequence-text: GCCAAGCAAUAUUACGACUA
measured-value: -1.82
//
sequence-text: GCUGAGCAAUAUUACGUUUG
measured-value: -2.85

The following sequences each have a reported value; give each one's self-splicing fitness (ln).
1. UUGUAGCAAUAUUACGCGCA
2. CGAGAGCAAUAUUACGUUUA
3. CACUAGCAAUAUUACGGUAA
4. UGUGAGCAAUAUUACGUACC
5. CGGGAGCAAUAUUACGGGGG
6. UUGAAGCAAUAUUACGCUGG

1: -0.824; 2: -3.35; 3: -2.52; 4: -1.1; 5: -2.37; 6: -0.756

The following sequences each have a reported value; give each one's self-splicing fitness (ln).
1. UUAGAGCAAUAUUACGGCUU
2. AUACAGCAAUAUUACGAACC
3. CCAGAGCAAUAUUACGUCUC
4. AGUUAGCAAUAUUACGUCAA
5. CCGCAGCAAUAUUACGAAGU
6. UAUAAGCAAUAUUACGUUUC
7. GAGAAGCAAUAUUACGUCAU
8. CUAUAGCAAUAUUACGUCGA

[-2.83, -2.11, -3.23, -3.02, -3.34, -3.5, -2.57, -2.18]
